Tested on: LOC_OS03G50450-cb001
Assay info: thermal shift delta Tm vs DMSO control; higher = stronger stabilization (binding);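 note: purified Escherichia coli-expressed rice kinase domain construct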
Condition parameters: 12.5 µM; protein concentration 2 µM
Measurement name: thermal shift delta Tm (°C)
Report as a plain number; the unit °C is understood.

What value of measured thermal shift delta Tm is listed for CSc1cccc(Nc2ncc3cc(-c4c(Cl)cccc4Cl)c(=O)n(C)c3n2)c1 ?
0.49

* * *

Tested on: LOC_OS04G38480-cb003
Sequence (as listed by the source): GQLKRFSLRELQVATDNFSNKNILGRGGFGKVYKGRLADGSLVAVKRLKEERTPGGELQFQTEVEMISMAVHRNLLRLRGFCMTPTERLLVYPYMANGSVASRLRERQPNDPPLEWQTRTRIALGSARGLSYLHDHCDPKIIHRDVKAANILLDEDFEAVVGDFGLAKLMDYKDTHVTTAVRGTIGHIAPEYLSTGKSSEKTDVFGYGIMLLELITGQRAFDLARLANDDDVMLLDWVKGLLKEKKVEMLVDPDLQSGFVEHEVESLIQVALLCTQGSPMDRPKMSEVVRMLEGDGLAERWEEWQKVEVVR
Assay info: thermal shift delta Tm vs DMSO control; higher = stronger stabilization (binding)
Condition parameters: 12.5 µM; protein concentration 2 µM
Counter-ions that a name gives are not always drawn.
Note to self: values exactly at 2 °C are class 1. So thermal shift delta Tm at or above 2 °C is class 1, below is class 0.

# count of solved cases: 5
[
  {
    "Compound": "Cc1nc(N)sc1-c1ccnc(Nc2ccc(N3CCOCC3)cc2)n1",
    "Cat": "class 1"
  },
  {
    "Compound": "CCOc1cc(C(=O)N2CCC(N3CCN(C)CC3)CC2)ccc1Nc1ncc2c(n1)N(C1CCCC1)c1ccccc1C(=O)N2C",
    "Cat": "class 0"
  },
  {
    "Compound": "O=C(NOCC1CC1)c1ccc(F)c(F)c1Nc1ccc(I)cc1Cl",
    "Cat": "class 0"
  },
  {
    "Compound": "CCc1cc(Nc2nccc(-c3c(-c4ccc(OC)c(C(=O)Nc5c(F)cccc5F)c4)nc4ccccn34)n2)c(OC)cc1N1CCC(N2CCN(S(C)(=O)=O)CC2)CC1",
    "Cat": "class 0"
  },
  {
    "Compound": "CNc1nc(Nc2cnn([C@H]3CCN(C4COC4)C[C@@H]3F)c2Cl)ncc1C(F)(F)F",
    "Cat": "class 1"
  }
]

Form field: thermal shift delta Tm at least 2 °C? Entry: CC(C)(O)CC(=O)NCCn1ccc2ncnc(Nc3ccc(Oc4cccc(C(F)(F)F)c4)c(Cl)c3)c21
class 0

Try this compound too: O=C(Nc1cnn2ccc(N3CCC[C@@H]3c3cc(F)ccc3F)nc12)N1CC[C@H](O)C1 [Larotrectinib (LOXO-101) sulfate]
class 0

What about CCn1cc(-c2ccnc3[nH]c(-c4cccc(CN(C)C)c4)cc23)c(-c2ccc(NC(=O)N(C)C)cc2)n1 ?
class 0

* * *

The compounds listed here are annotated with their thermal shift delta Tm.
Tested on: LOC_OS06G16330-cb003
Sequence (as listed by the source): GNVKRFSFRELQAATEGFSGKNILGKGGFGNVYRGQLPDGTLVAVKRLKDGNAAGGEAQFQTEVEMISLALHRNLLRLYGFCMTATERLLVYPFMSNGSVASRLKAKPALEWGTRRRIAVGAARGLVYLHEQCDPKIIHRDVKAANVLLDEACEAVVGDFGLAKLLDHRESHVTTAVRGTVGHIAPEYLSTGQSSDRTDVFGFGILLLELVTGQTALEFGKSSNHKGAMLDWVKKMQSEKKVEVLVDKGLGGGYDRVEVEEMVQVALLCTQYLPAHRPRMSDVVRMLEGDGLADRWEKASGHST
Assay info: thermal shift delta Tm vs DMSO control; higher = stronger stabilization (binding)
Condition parameters: 12.5 µM; protein concentration 2 µM
Structures can show the parent of a compound that is named as a salt.
The answer is to be given in °C; state only the numeric part.

[
  {
    "Compound": "CC(C)c1ccc2oc3nc(N)c(C(=O)O)cc3c(=O)c2c1",
    "Study system": "LOC_OS06G16330-cb003",
    "Unit of measure": "°C",
    "thermal shift delta Tm": 2.5
  },
  {
    "Compound": "O=C(O[C@@H]1Cc2c(O)cc(O)cc2O[C@@H]1c1cc(O)c(O)c(O)c1)c1cc(O)c(O)c(O)c1 [(-)-Epigallocatechin Gallate]",
    "Study system": "LOC_OS06G16330-cb003",
    "Unit of measure": "°C",
    "thermal shift delta Tm": 0.52
  },
  {
    "Compound": "CC(C)c1cnn2c(NCc3ccccc3)cc(NCCCCCCN)nc12",
    "Study system": "LOC_OS06G16330-cb003",
    "Unit of measure": "°C",
    "thermal shift delta Tm": -0.05
  },
  {
    "Compound": "Cc1nc(Nc2cnn(C3CCNCC3)c2)nc2c1N(C)C(=O)c1cc3ccccc3cc1N2C",
    "Study system": "LOC_OS06G16330-cb003",
    "Unit of measure": "°C",
    "thermal shift delta Tm": 1.66
  },
  {
    "Compound": "C=CC(=O)N1CC[C@@H](Oc2nc(Nc3ccc(N4CCC(N5CCN(C)CC5)CC4)cc3)c(C(N)=O)nc2CC)C1",
    "Study system": "LOC_OS06G16330-cb003",
    "Unit of measure": "°C",
    "thermal shift delta Tm": 10
  }
]

GET /values?readout=thermal shift delta Tm&item= CCCCCCCCc1ccc(CCC(N)(CO)CO)cc1 [Fingolimod (FTY720) HCl]
-1.94

Next compound: Cn1cc(-c2ccc3c(c2)CCN3C(=O)Cc2cccc(C(F)(F)F)c2)c2c(N)ncnc21
2.76

What about this compound? Nc1nccc(Oc2ccc3c(C(=O)Nc4cccc(C(F)(F)F)c4)cccc3c2)n1
0
